Cited source for all entries: patent US20090098142A1

Provide the recorded Native hIL-13 STAT6 assay IC 50, nM for the entries that follow.
Biological target: native human IL-13 (human, UniProt P35225 34-146)
Sequence (P35225 other isoform, or with tags, fused parts or gaps): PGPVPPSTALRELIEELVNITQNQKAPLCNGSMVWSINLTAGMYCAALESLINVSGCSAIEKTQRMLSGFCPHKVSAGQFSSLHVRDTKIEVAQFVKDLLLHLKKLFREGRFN
Assay: cell-based or functional assay

Worked examples follow.
| BINDER | Native hIL-13 STAT6 assay IC 50, nM |
| --- | --- |
| humanized MJ 2-7 V2.5 (VH V2.5 / VL V2) (antibody, V domains shown) VH: EVQLVESGGGLVQPGGSLRLSCAASGFNIKDTYIHWVRQAPGKGLEWVARIDPANDNIKYDPKFQGKATISADNAKNSLYLQMNSLRAEDTAVYYCARSEENWYDFFDYWGQGTLVTVSS VL: DIQMTQSPSSLSASVGDRVTITCRSSQSIVHSNGNTYLEWYQQKPGKAPKLLIYKVSNRFSGVPSRFSGSGSGTDFTLTISSLQPEDFATYYCFQGSHIPYTFGGGTKVEIKR | 1.75 nM |
| humanized MJ 2-7 V2.2 (VH V2.2 / VL V2) (antibody, V domains shown) VH: EVQLVESGGGLVQPGGSLRLSCAASGFNIKDTYIHWVRQAPGKGLEWVARIDPANDNIKYDPKFQGKATISRDNAKNSLYLQMNSLRAEDTAVYYCARSEENWYDFFDYWGQGTLVTVSS VL: DIQMTQSPSSLSASVGDRVTITCRSSQSIVHSNGNTYLEWYQQKPGKAPKLLIYKVSNRFSGVPSRFSGSGSGTDFTLTISSLQPEDFATYYCFQGSHIPYTFGGGTKVEIKR | > 100 nM |
| humanized MJ 2-7 V2.7 (VH V2.7 / VL V2) (antibody, V domains shown) VH: EVQLVESGGGLVQPGGSLRLSCAASGFNIKDTYIHWVRQAPGKGLEWVGRIDPANDNIKYDPKFQGRFTISADNAKNSLYLQMNSLRAEDTAVYYCARSEENWYDFFDYWGQGTLVTVSS VL: DIQMTQSPSSLSASVGDRVTITCRSSQSIVHSNGNTYLEWYQQKPGKAPKLLIYKVSNRFSGVPSRFSGSGSGTDFTLTISSLQPEDFATYYCFQGSHIPYTFGGGTKVEIKR | 1.7 nM |

Parameters: items (list). Returns: Native hIL-13 STAT6 assay IC 50, nM for each item.
1. humanized MJ 2-7 V2 (CDR grafted; VH V2 / VL V2) (antibody, human IgG1, V domains shown, Expressed in COS cells with human IgG1 (IgG1mut) and human kappa constant regions; also called hMJ2-7 V2; huMJ 2-7 V2) VH: EVQLVESGGGLVQPGGSLRLSCAASGFNIKDTYIHWVRQAPGKGLEWVARIDPANDNIKYDPKFQGRFTISRDNAKNSLYLQMNSLRAEDTAVYYCARSEENWYDFFDYWGQGTLVTVSS VL: DIQMTQSPSSLSASVGDRVTITCRSSQSIVHSNGNTYLEWYQQKPGKAPKLLIYKVSNRFSGVPSRFSGSGSGTDFTLTISSLQPEDFATYYCFQGSHIPYTFGGGTKVEIKR
2. humanized MJ 2-7 V2.1 (VH V2.1 / VL V2) (antibody, V domains shown) VH: EVQLVESGGGLVQPGGSLRLSCAASGFNIKDTYIHWVRQAPGKGLEWIGRIDPANDNIKYDPKFQGRFTISRDNAKNSLYLQMNSLRAEDTAVYYCARSEENWYDFFDYWGQGTLVTVSS VL: DIQMTQSPSSLSASVGDRVTITCRSSQSIVHSNGNTYLEWYQQKPGKAPKLLIYKVSNRFSGVPSRFSGSGSGTDFTLTISSLQPEDFATYYCFQGSHIPYTFGGGTKVEIKR
3. humanized MJ 2-7 V2.4 (VH V2.4 / VL V2) (antibody, V domains shown) VH: EVQLVESGGGLVQPGGSLRLSCAASGFNIKDTYIHWVRQAPGKGLEWVGRIDPANDNIKYDPKFQGRFTISRDNAKNSLYLQMNSLRAEDTAVYYCARSEENWYDFFDYWGQGTLVTVSS VL: DIQMTQSPSSLSASVGDRVTITCRSSQSIVHSNGNTYLEWYQQKPGKAPKLLIYKVSNRFSGVPSRFSGSGSGTDFTLTISSLQPEDFATYYCFQGSHIPYTFGGGTKVEIKR

1. > 100 nM
2. 2.8 nM
3. 17.5 nM
